Reference source: PubChem BioAssay AID1918995

Please provide measured IC50 for the entries that follow.
- Tested on: 324938-238-R-J1-PDC complex spheroid growth, % test/control
- test.name: Anticancer human tumor 324938-238-R-J1-PDC patient-derived bladder carcinoma cell line growth inhibition [AhR]
- recorded.conditions: curve of first compound; second compound 1 µM

CC(C)c1c(-c2ccccc2)nc2c(C#N)c[nH]n2c1=O + Cc1cncc(-c2nc(NCCc3c[nH]c4ccccc34)c3ncn(C(C)C)c3n2)c1 | > 10 µM
Nc1ncn(C2CC(O)C(CO)S2)c(=O)n1 (stereo not drawn) + Cc1ccccc1N=Nc1ccc(NC(=O)c2ccnn2C)c(C)c1 | > 0.3 µM

Request: IC50 for O=C(c1cc(Cc2n[nH]c(=O)c3ccccc23)ccc1F)N1CCN(C(=O)C2CC2)CC1 + CC(CO)NC(=O)c1cc(-c2ccc(Cl)cc2)nn(-c2cnn(C)c2)c1=O ?
Result: > 10 µM

----------
- Tested on: 324938-238-R-J1-PDC complex spheroid growth, % test/control
- test.name: Anticancer human tumor 324938-238-R-J1-PDC cell line growth inhibition [AhR];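 further: spheroids exposed to agents for seven days before viability read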
- recorded.conditions: second compound 0.316 µM; first compound 0.01 µM; stronger effect = lower value
- Description: Multicellular complex tumor spheroid response to aryl hydrocarbon receptor antagonists in combination with a variety of drugs and investigational agents in selected tumor cell lines […] Compounds. […] If the clinical Cmax for an agent had not been determined, the highest concentration tested was 10 microM (Table 1). […]
Could you please report measured viability, T/C for the items listed next?
Answers are plain numbers, in %.

CC[C@@]1(O)C(=O)OCc2c1cc1n(c2=O)Cc2cc3c(CN(C)C)c(O)ccc3nc2-1 + Cc1cncc(-c2nc(NCCc3c[nH]c4ccccc34)c3ncn(C(C)C)c3n2)c1 | 93.2
Nc1ncn(C2CC(O)C(CO)O2)c(=O)n1 (stereo unspecified) + Cc1ccccc1N=Nc1ccc(NC(=O)c2ccnn2C)c(C)c1 | 87.9
Cn1ncnc1C1c2n[nH]c(=O)c3cc(F)cc(c23)NC1c1ccc(F)cc1 (stereo unspecified) + Cc1ccccc1N=Nc1ccc(NC(=O)c2ccnn2C)c(C)c1 | 74.4
CC1COCCN1c1cc(-c2ccnn2C)c2ccnc(-c3ccn[nH]3)c2n1 (stereo unspecified) + CC(CO)NC(=O)c1cc(-c2ccc(Cl)cc2)nn(-c2cnn(C)c2)c1=O | 102
CC[C@@]1(O)C(=O)OCc2c1cc1n(c2=O)Cc2cc3c(CN(C)C)c(O)ccc3nc2-1 + Cc1ccccc1N=Nc1ccc(NC(=O)c2ccnn2C)c(C)c1 | 70.7

We next turn to a different molecule, shown below.
Request: Which viability, T/C is reported with 324938-238-R-J1-PDC complex spheroid growth, % test/control for this entry: CC1COCCN1c1cc(-c2ccnn2C)c2ccnc(-c3ccn[nH]3)c2n1 (stereo unspecified) + Cc1ccccc1N=Nc1ccc(NC(=O)c2ccnn2C)c(C)c1 ?
Result: 90.8

----------
- Tested on: 324938-238-R-J1-PDC complex spheroid growth, % test/control
- test.name: Anticancer human tumor 324938-238-R-J1-PDC cell line growth inhibition [AhR];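 further: spheroids exposed to agents for seven days before viability read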
- recorded.conditions: second compound 0.316 µM; first compound 0.003 µM; stronger effect = lower value
measured.endpoint: viability, T/C (%)
Give bare numbers, in %.

Nc1ncn(C2CC(O)C(CO)S2)c(=O)n1 (stereo unspecified) + Cc1ccccc1N=Nc1ccc(NC(=O)c2ccnn2C)c(C)c1 | 90.2

Report viability, T/C for every entry below.
1. CCc1c2c(nc3ccc(O)cc13)-c1cc3c(c(=O)n1C2)COC(=O)[C@]3(O)CC + Cc1cncc(-c2nc(NCCc3c[nH]c4ccccc34)c3ncn(C(C)C)c3n2)c1
2. CC(C)CC(NC(=O)C(Cc1ccccc1)NC(=O)c1cnccn1)B(O)O (stereo unspecified) + CC(CO)NC(=O)c1cc(-c2ccc(Cl)cc2)nn(-c2cnn(C)c2)c1=O
3. CC(C)CC(NC(=O)C(Cc1ccccc1)NC(=O)c1cnccn1)B(O)O (stereo unspecified) + Cc1cncc(-c2nc(NCCc3c[nH]c4ccccc34)c3ncn(C(C)C)c3n2)c1
4. CCc1c2c(nc3ccc(O)cc13)-c1cc3c(c(=O)n1C2)COC(=O)[C@]3(O)CC + CC(CO)NC(=O)c1cc(-c2ccc(Cl)cc2)nn(-c2cnn(C)c2)c1=O
5. CCc1c2c(nc3ccc(O)cc13)-c1cc3c(c(=O)n1C2)COC(=O)[C@]3(O)CC + Cc1ccccc1N=Nc1ccc(NC(=O)c2ccnn2C)c(C)c1

Result:
[81.9, 14.3, 69.4, 31, 48.5]

----------
- System: 324938-238-R-J1-PDC complex spheroid growth, % test/control
- test.name: Anticancer human tumor 324938-238-R-J1-PDC cell line growth inhibition [AhR];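 further: spheroids exposed to agents for seven days before viability read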
- recorded.conditions: second compound 10 µM; first compound 10 µM; stronger effect = lower value
Labelling: viability, T/C reported below 40% becomes True; at or above becomes False.

NS(=O)(=O)OCC1CC(n2ccc3c(NC4CCc5ccccc54)ncnc32)CC1O (stereo unspecified) + Cc1cncc(-c2nc(NCCc3c[nH]c4ccccc34)c3ncn(C(C)C)c3n2)c1 | True
O=C(C=Cc1cccc(S(=O)(=O)Nc2ccccc2)c1)NO + Cc1ccccc1N=Nc1ccc(NC(=O)c2ccnn2C)c(C)c1 | True
Nc1ccn(C2OC(CO)C(O)C2(F)F)c(=O)n1 (stereo unspecified) + Cc1cncc(-c2nc(NCCc3c[nH]c4ccccc34)c3ncn(C(C)C)c3n2)c1 | False
COc1ccc([C@@H](O)c2cc(-c3ncnc4cc(N5CCOCC5)ccc34)c(F)cc2Cl)nn1 + CC(CO)NC(=O)c1cc(-c2ccc(Cl)cc2)nn(-c2cnn(C)c2)c1=O | False

We now examine a further molecule.
Request: Identify whether the molecule O=C(c1cc(Cc2n[nH]c(=O)c3ccccc23)ccc1F)N1CCN(C(=O)C2CC2)CC1 + CC(CO)NC(=O)c1cc(-c2ccc(Cl)cc2)nn(-c2cnn(C)c2)c1=O records viability, T/C below 40%.
Result: False

----------
- Tested on: 324938-238-R-J1-PDC complex spheroid growth, % test/control
- test.name: Anticancer human tumor 324938-238-R-J1-PDC cell line growth inhibition [AhR];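 further: spheroids exposed to agents for seven days before viability read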
- recorded.conditions: second compound 1 µM; first compound 0.00949 µM; stronger effect = lower value
# strict inequality: viability, T/C < 90% yields TRUE, everything else yields FALSE

Look over these answered cases.
CC(C)CC(NC(=O)C(Cc1ccccc1)NC(=O)c1cnccn1)B(O)O (stereo not given) + Cc1cncc(-c2nc(NCCc3c[nH]c4ccccc34)c3ncn(C(C)C)c3n2)c1 | TRUE
Nc1ncn(C2CC(O)C(CO)S2)c(=O)n1 (stereo not given) + Cc1ccccc1N=Nc1ccc(NC(=O)c2ccnn2C)c(C)c1 | TRUE
CCc1c2c(nc3ccc(O)cc13)-c1cc3c(c(=O)n1C2)COC(=O)[C@]3(O)CC + Cc1cncc(-c2nc(NCCc3c[nH]c4ccccc34)c3ncn(C(C)C)c3n2)c1 | FALSE
CCc1c2c(nc3ccc(O)cc13)-c1cc3c(c(=O)n1C2)COC(=O)[C@]3(O)CC + CC(CO)NC(=O)c1cc(-c2ccc(Cl)cc2)nn(-c2cnn(C)c2)c1=O | TRUE
CC(C)CC(NC(=O)C(Cc1ccccc1)NC(=O)c1cnccn1)B(O)O (stereo not given) + Cc1ccccc1N=Nc1ccc(NC(=O)c2ccnn2C)c(C)c1 | TRUE

Request: Is it true that viability, T/C reported for CCc1c2c(nc3ccc(O)cc13)-c1cc3c(c(=O)n1C2)COC(=O)[C@]3(O)CC + Cc1ccccc1N=Nc1ccc(NC(=O)c2ccnn2C)c(C)c1 is less than 90%?
Result: TRUE

Request: Entry Nc1ncn(C2CC(O)C(CO)S2)c(=O)n1 (stereo not given) + Cc1cncc(-c2nc(NCCc3c[nH]c4ccccc34)c3ncn(C(C)C)c3n2)c1 please
Result: FALSE

Request: Please answer likewise for O=C(C=Cn1cnc(-c2cc(C(F)(F)F)cc(C(F)(F)F)c2)n1)NNc1cnccn1 + Cc1ccccc1N=Nc1ccc(NC(=O)c2ccnn2C)c(C)c1
Result: TRUE

Request: Would you kindly repeat that for CCN(c1cc(-c2ccc(CN3CCOCC3)cc2)cc(C(=O)NCc2c(C)cc(C)[nH]c2=O)c1C)C1CCOCC1 + Cc1cncc(-c2nc(NCCc3c[nH]c4ccccc34)c3ncn(C(C)C)c3n2)c1 ?
Result: TRUE

----------
- Test system: 324938-238-R-J1-PDC complex spheroid growth, % test/control
- test.name: Anticancer human tumor 324938-238-R-J1-PDC cell line growth inhibition [AhR]; active = viability on the fitted dose curve at most 10% of control; inactive = the rest;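 further: spheroids exposed to agents for seven days before viability read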
- recorded.conditions: second compound 0.316 µM; first compound 0.0949 µM
Reply using exactly one outcome from 1 = active, 0 = inactive

Answered examples (5):
CC(C)CC(NC(=O)C(Cc1ccccc1)NC(=O)c1cnccn1)B(O)O (stereo unspecified) + CC(CO)NC(=O)c1cc(-c2ccc(Cl)cc2)nn(-c2cnn(C)c2)c1=O | 1
O=C(C=Cn1cnc(-c2cc(C(F)(F)F)cc(C(F)(F)F)c2)n1)NNc1cnccn1 + CC(CO)NC(=O)c1cc(-c2ccc(Cl)cc2)nn(-c2cnn(C)c2)c1=O | 0
O=C(C=Cn1cnc(-c2cc(C(F)(F)F)cc(C(F)(F)F)c2)n1)NNc1cnccn1 + Cc1cncc(-c2nc(NCCc3c[nH]c4ccccc34)c3ncn(C(C)C)c3n2)c1 | 0
CCc1c2c(nc3ccc(O)cc13)-c1cc3c(c(=O)n1C2)COC(=O)[C@]3(O)CC + Cc1ccccc1N=Nc1ccc(NC(=O)c2ccnn2C)c(C)c1 | 0
O=C(C=Cn1cnc(-c2cc(C(F)(F)F)cc(C(F)(F)F)c2)n1)NNc1cnccn1 + Cc1ccccc1N=Nc1ccc(NC(=O)c2ccnn2C)c(C)c1 | 0

Now take the following compound into account.
Request: Each compound tested received a call. Report the one for Nc1ncn(C2CC(O)C(CO)S2)c(=O)n1 (stereo unspecified) + Cc1cncc(-c2nc(NCCc3c[nH]c4ccccc34)c3ncn(C(C)C)c3n2)c1 .
Result: 0
